molecular target: Serotonin 2 (5-HT2) receptor (Rattus norvegicus) (UniProt P30994+P08909+P14842); assay: 5-HT1C selectivity was defined as the ratio between Ki(5-HT2)/Ki(5-HT1C); type: protein assay
Sequence (P08909 whole entry, looked up): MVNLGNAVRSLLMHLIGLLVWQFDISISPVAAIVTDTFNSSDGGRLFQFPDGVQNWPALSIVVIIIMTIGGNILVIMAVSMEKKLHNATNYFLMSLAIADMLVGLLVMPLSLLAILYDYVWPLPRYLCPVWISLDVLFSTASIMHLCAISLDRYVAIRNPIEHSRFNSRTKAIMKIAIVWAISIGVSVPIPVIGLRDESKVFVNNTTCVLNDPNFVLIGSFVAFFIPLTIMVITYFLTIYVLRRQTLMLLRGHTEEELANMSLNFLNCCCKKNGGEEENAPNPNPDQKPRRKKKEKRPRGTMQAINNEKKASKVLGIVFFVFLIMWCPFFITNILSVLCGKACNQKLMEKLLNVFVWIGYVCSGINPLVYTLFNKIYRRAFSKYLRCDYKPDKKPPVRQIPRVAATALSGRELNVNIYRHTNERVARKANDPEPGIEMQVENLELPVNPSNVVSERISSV
Sequence (P14842 whole entry, looked up): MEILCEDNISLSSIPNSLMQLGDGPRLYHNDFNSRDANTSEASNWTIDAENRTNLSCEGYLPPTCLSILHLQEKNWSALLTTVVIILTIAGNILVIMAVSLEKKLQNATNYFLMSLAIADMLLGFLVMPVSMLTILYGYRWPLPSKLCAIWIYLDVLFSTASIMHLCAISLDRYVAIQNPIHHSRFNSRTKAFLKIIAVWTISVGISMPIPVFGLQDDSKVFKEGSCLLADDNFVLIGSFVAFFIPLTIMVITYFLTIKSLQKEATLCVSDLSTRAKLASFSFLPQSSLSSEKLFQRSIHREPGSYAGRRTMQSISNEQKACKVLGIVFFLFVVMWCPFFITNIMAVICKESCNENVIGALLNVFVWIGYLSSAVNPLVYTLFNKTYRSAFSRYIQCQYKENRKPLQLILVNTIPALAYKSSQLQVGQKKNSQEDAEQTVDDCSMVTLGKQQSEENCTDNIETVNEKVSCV
Sequence (P30994 whole entry, looked up): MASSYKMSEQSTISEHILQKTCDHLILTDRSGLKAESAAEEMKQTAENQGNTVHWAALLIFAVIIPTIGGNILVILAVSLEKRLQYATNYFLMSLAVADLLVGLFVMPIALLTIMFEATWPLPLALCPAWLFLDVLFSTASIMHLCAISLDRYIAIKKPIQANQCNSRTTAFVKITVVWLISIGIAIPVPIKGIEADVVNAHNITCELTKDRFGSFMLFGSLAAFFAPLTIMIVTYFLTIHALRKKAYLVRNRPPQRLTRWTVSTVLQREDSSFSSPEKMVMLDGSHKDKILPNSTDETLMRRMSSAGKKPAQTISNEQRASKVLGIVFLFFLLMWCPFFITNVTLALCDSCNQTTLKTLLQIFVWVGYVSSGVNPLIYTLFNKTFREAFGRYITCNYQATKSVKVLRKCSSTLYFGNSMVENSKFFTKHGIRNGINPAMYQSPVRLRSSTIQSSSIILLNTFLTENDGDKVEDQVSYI
QUANTITY KIND: Selectivity

COMPOUND | CENSORING SIGN | OBSERVED RESULT
COc1cccc(Br)c1CC(C)N (stereo not drawn) | > | 6
COc1ccc(CC(C)N)c(OC)c1 (stereo not drawn) | > | 2
CCCOC(=O)c1cc(OC)c(CC(C)N)cc1OC (stereo not drawn) | < | 1
COc1cc(C)ccc1CC(C)N (stereo not drawn) | = | 2
COc1cc(Br)ccc1CCN | = | 5
COc1cc(I)ccc1CC(C)N (stereo not drawn) | = | 5
CNC(C)Cc1cc(OC)c(Br)cc1OC (stereo not drawn) | = | 1
CCOc1cc(OC)c(CC(C)N)cc1OC (stereo not drawn) | = | 1
CCCNC(C)Cc1cc(OC)c(Br)cc1OC (stereo not drawn) | < | 1
CCCCc1cc(OC)c(CC(C)N)cc1OC (stereo not drawn) | = | 2
CCCc1cc(OC)c(CC(C)N)cc1OC (stereo not drawn) | = | 5
COc1cc(C)ccc1CCN | = | 7
COc1cc(CC(C)N)c(OC)cc1I (stereo not drawn) | = | 0.6
